Reported values of melting point for individual entries
parameter.measured: melting point

[[record]]
molecule = "O=C(/N=c1\\sc2c(n1CC1CC1)CCCC2)c1cccc(C(F)(F)F)c1"
parameter_measured = "melting point"
meas_value = "159 to 160 °C"

[[record]]
molecule = "Cc1c(C(C)(C)C)s/c(=N\\C(=O)c2ccccc2Br)n1C"
parameter_measured = "melting point"
meas_value = "182 to 184 °C"

[[record]]
molecule = "COCCn1c(C)c(C(C)(C)C)s/c1=N\\C(=O)c1cc(F)ccc1C"
parameter_measured = "melting point"
meas_value = "106 to 107 °C"

[[record]]
molecule = "CCn1c(C)c(C(C)(C)C)s/c1=N\\C(=O)c1ccccc1OC(F)(F)F"
parameter_measured = "melting point"
meas_value = "104 to 105 °C"

[[record]]
molecule = "CCN(CC)c1ccc(C(=O)/N=c2\\sc(C(C)(C)C)c(C)n2CC2CC2)cc1"
parameter_measured = "melting point"
meas_value = "134 to 136 °C"

[[record]]
molecule = "Cc1c(C(C)(C)C)s/c(=N\\C(=O)c2cccc([N+](=O)[O-])c2)n1CC1CC1"
parameter_measured = "melting point"
meas_value = "87 to 89 °C"

[[record]]
molecule = "Cc1c(C(C)(C)C)s/c(=N\\C(=O)c2cccc(OC(F)(F)F)c2)n1CC1CC1"
parameter_measured = "melting point"
meas_value = "106 to 108 °C"

[[record]]
molecule = "Cn1c(C(C)(C)C)c/c(=N\\C(=O)c2ccccc2C(F)(F)F)n1CC1CC1"
parameter_measured = "melting point"
meas_value = "83 to 85 °C"

[[record]]
molecule = "COc1ccc(C(F)(F)F)cc1C(=O)/N=c1\\cc(C(C)(C)C)on1CC1CC1"
parameter_measured = "melting point"
meas_value = "64 to 65 °C"

[[record]]
molecule = "Cc1c(C(C)(C)C)s/c(=N\\C(=O)c2cccc(N3CCOCC3)c2)n1CC1CC1"
parameter_measured = "melting point"
meas_value = "114 to 115 °C"

[[record]]
molecule = "Cc1cn(CC2CC2)/c(=N\\C(=O)c2cccnc2)s1"
parameter_measured = "melting point"
meas_value = "115 to 117 °C"

[[record]]
molecule = "COc1ccncc1C(=O)/N=c1\\sc(C(C)(C)C)nn1CC1CC1"
parameter_measured = "melting point"
meas_value = "94 to 95 °C"

[[record]]
molecule = "Cn1c(C(C)(C)C)c/c(=N\\C=O)n1CC1CC1"
parameter_measured = "melting point"
meas_value = "122 to 124 °C"

[[record]]
molecule = "CCn1c(C)c(C(C)(C)C)s/c1=N\\C(=O)c1cc(F)c(Cl)cc1Cl"
parameter_measured = "melting point"
meas_value = "112 to 114 °C"

[[record]]
molecule = "Cc1cccc(C(=O)/N=c2\\sc(C(C)(C)C)c(C)n2CC2CC2)c1C"
parameter_measured = "melting point"
meas_value = "97 to 98 °C"

[[record]]
molecule = "Cc1ccccc1C(=O)/N=c1\\sc2ccccc2n1CC1CC1"
parameter_measured = "melting point"
meas_value = "115 to 117 °C"

[[record]]
molecule = "Cc1c(C(C)C)o/c(=N\\C(=O)c2cc(C(F)(F)F)ccc2F)n1CC1CC1"
parameter_measured = "melting point"
meas_value = "76 to 78 °C"

[[record]]
molecule = "CCc1ccnc(C(=O)/N=c2\\sc(C(C)(C)C)c(C)n2CC2CC2)c1"
parameter_measured = "melting point"
meas_value = "104 to 106 °C"

[[record]]
molecule = "CCc1ccccc1C(=O)/N=c1\\sc(C)c(C)n1CC1CC1"
parameter_measured = "melting point"
meas_value = "150 to 152 °C"

[[record]]
molecule = "CCn1c(C)c(C(C)(C)C)s/c1=N\\C(=O)c1cc(C(F)(F)F)ccc1C"
parameter_measured = "melting point"
meas_value = "63 to 65 °C"


====

Reported values of melting point for individual entries
parameter.measured: melting point

[[record]]
compound = "CCn1cc(C)s/c1=N\\C(=O)c1cccc(C(F)(F)F)c1F"
meas_value = "90 to 92 °C"

[[record]]
compound = "COc1ccc(F)cc1C(=O)/N=c1\\sc(C(C)(C)C)c(C)n1CC1CC1 [compound 262]"
meas_value = "87 to 89 °C"

[[record]]
compound = "Cn1c(C(C)(C)C)c/c(=N\\S(=O)(=O)c2cccc(C(F)(F)F)c2)n1CC1CC1"
meas_value = "121 to 122 °C"

[[record]]
compound = "Cc1c(C(C)(C)C)s/c(=N\\C(=O)c2cccnc2N2CCCC2)n1CC1CC1"
meas_value = "97 to 98 °C"

[[record]]
compound = "CC(=O)OC(C(=O)/N=c1\\sc(C(C)(C)C)c(C)n1CC1CC1)c1ccccc1 (stereo not drawn) [compound 341]"
meas_value = "147 to 148 °C"

[[record]]
compound = "Cc1c(C(C)(C)C)s/c(=N\\C(=O)c2ccc3nonc3c2)n1CC1CC1 [compound 320]"
meas_value = "139 to 141 °C"

[[record]]
compound = "COCCOc1ccc(C(F)(F)F)cc1C(=O)/N=c1\\sc(C(C)(C)C)c(C)n1CC1CC1 [compound 270]"
meas_value = "108 to 110 °C"

[[record]]
compound = "Cc1ccc(F)c(C(=O)/N=c2\\sc(C(C)(C)C)c(C)n2CC2CC2)c1 [compound 239]"
meas_value = "117 to 119 °C"

[[record]]
compound = "Cc1s/c(=N\\C(=O)c2cc(Cl)ccc2Cl)n(CC2CC2)c1C"
meas_value = "113 to 115 °C"

[[record]]
compound = "O=C(/N=c1\\ccc(Cl)cn1CC1CC1)c1cccc(C(F)(F)F)c1F [compound 34]"
meas_value = "117 to 119 °C"

[[record]]
compound = "Cc1c(F)cccc1C(=O)/N=c1\\sc(C(C)(C)C)c(C)n1CC1CC1 [compound 240]"
meas_value = "94 to 96 °C"

[[record]]
compound = "Cc1c(C(C)(C)C)s/c(=N\\C(=O)c2ccc([N+](=O)[O-])o2)n1CC1CC1 [compound 319]"
meas_value = "129 to 130 °C"

[[record]]
compound = "Cc1c(C(C)C)s/c(=N\\C(=O)c2cccc(C(F)(F)F)c2F)n1CC1CC1 [compound 113]"
meas_value = "64 to 66 °C"

[[record]]
compound = "Cc1c(C(C)(C)C)s/c(=N\\C(=O)c2cccc(N3CCCCC3)c2)n1CC1CC1"
meas_value = "89 to 90 °C"

[[record]]
compound = "O=C(/N=c1\\ccc(C(F)(F)F)cn1CC1CC1)c1cccc(C(F)(F)F)c1"
meas_value = "84 to 85 °C"

[[record]]
compound = "Cc1c(C(C)(C)C)s/c(=N\\C(=O)c2c(F)ccc(F)c2F)n1C [compound 134]"
meas_value = "143 to 145 °C"

[[record]]
compound = "Cc1c(C(C)(C)C)s/c(=N\\C(=O)c2cc(C(F)(F)F)ccc2N2CCOCC2)n1CC1CC1"
meas_value = "86 to 87 °C"

[[record]]
compound = "Cc1c(C(C)(C)C)s/c(=N\\C(=O)c2ccnc3ccccc23)n1CC1CC1 [compound 323]"
meas_value = "124 to 126 °C"


====

assayed.target: human CB2 receptor (Homo sapiens, UniProt P34972)
Construct: expressed in transfected cells
Sequence (P34972 whole entry): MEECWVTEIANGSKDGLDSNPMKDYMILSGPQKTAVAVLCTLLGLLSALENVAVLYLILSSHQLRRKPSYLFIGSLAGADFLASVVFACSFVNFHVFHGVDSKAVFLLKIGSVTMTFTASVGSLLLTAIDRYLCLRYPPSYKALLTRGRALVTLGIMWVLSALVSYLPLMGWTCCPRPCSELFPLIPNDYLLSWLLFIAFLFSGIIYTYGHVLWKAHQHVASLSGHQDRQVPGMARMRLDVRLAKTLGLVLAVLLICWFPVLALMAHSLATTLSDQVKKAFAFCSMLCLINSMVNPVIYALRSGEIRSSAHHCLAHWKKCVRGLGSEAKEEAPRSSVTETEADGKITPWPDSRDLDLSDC
assay.remarks: Human CB2 receptor binding inhibition test ([3H]CP-55,940, CHO membrane fractions)
cond: [3H]CP-55,940, membrane fractions of CHO cells stably expressing human CB2 receptor, 25° C., 2 hours; read-out: CB2 IC50 (Inhibition of binding to human CB2 receptor)
pIC50: −log10 of the molar value.
Reported values of pIC50 for individual entries
parameter.measured: pIC50

[[record]]
molecule = "CSc1ncccc1C(=O)/N=c1\\sc(C(C)(C)C)c(C)n1CC1CC1 [compound 312]"
assayed_target = "human CB2 receptor (Homo sapiens, UniProt P34972)"
meas_value = 7.85

[[record]]
molecule = "Cc1c(C(C)(C)C)s/c(=N\\C(=O)c2cccc(Cl)c2F)n1C [compound 129]"
assayed_target = "human CB2 receptor (Homo sapiens, UniProt P34972)"
meas_value = 8.15

[[record]]
molecule = "CCOc1ncccc1C(=O)/N=c1\\sc(C(C)(C)C)c(C)n1CC1CC1 [compound 310]"
assayed_target = "human CB2 receptor (Homo sapiens, UniProt P34972)"
meas_value = 7.76

[[record]]
molecule = "COCCn1c(C)c(C(C)(C)C)s/c1=N\\C(=O)c1cccc(I)c1 [compound 346]"
assayed_target = "human CB2 receptor (Homo sapiens, UniProt P34972)"
meas_value = 7.87

[[record]]
molecule = "COc1cccc(C(=O)/N=c2\\sc(C(C)(C)C)c(C)n2CC2CC2)c1OC [compound 235]"
assayed_target = "human CB2 receptor (Homo sapiens, UniProt P34972)"
meas_value = 8.47


====

Reported values of melting point for individual entries
parameter.measured: melting point

[[record]]
compound = "Cc1s/c(=N\\C(=O)CC(C)CC(C)(C)C)n(CC2CC2)c1C (racemic) [compound 99]"
parameter_measured = "melting point"
meas_value = "42 to 43 °C"

[[record]]
compound = "CCn1c(C)c(C(C)(C)C)s/c1=N\\C(=O)c1cc(C(F)(F)F)ccc1OC(F)F [compound 174]"
parameter_measured = "melting point"
meas_value = "95 to 97 °C"

[[record]]
compound = "COc1ccc/c(=N\\C(=O)c2cccc(C(F)(F)F)c2F)n1CC1CC1"
parameter_measured = "melting point"
meas_value = "126 to 128 °C"

[[record]]
compound = "CCOC(=O)c1s/c(=N\\C(=O)c2cccc(C(F)(F)F)c2)n(CC2CC2)c1C"
parameter_measured = "melting point"
meas_value = "115 to 116 °C"

[[record]]
compound = "COCCn1c(C)c(C(C)(C)C)s/c1=N\\C(=O)c1cc(F)c(Cl)cc1Cl [compound 349]"
parameter_measured = "melting point"
meas_value = "161 to 163 °C"

[[record]]
compound = "Cc1c(C(C)(C)C)s/c(=N\\C(=O)c2cc(C(F)(F)F)ccc2C(F)(F)F)n1CC1CC1 [compound 220]"
parameter_measured = "melting point"
meas_value = "159 to 161 °C"

[[record]]
compound = "Cc1c(C(C)(C)C)s/c(=N/C(=O)c2cccnc2F)n1CC1CC1 [compound 300]"
parameter_measured = "melting point"
meas_value = "83 to 84 °C"

[[record]]
compound = "CCc1s/c(=N\\C(=O)c2cccc(C(F)(F)F)c2F)n(CC2CC2)c1C [compound 109]"
parameter_measured = "melting point"
meas_value = "164 to 166 °C"

[[record]]
compound = "CCn1c(C)c(C(C)(C)C)s/c1=N\\C(=O)c1ccc(Cl)cc1C [compound 162]"
parameter_measured = "melting point"
meas_value = "125 to 126 °C"

[[record]]
compound = "Cc1s/c(=N\\C(=O)c2ccccc2Cl)n(CC2CC2)c1C"
parameter_measured = "melting point"
meas_value = "125 to 127 °C"

[[record]]
compound = "COCCn1c(C)c(C(C)(C)C)s/c1=N\\C(=O)c1cccc(Br)c1 [compound 345]"
parameter_measured = "melting point"
meas_value = "89 to 91 °C"

[[record]]
compound = "COC(=O)c1ccc(C(=O)/N=c2\\sc(C(C)(C)C)c(C)n2CC2CC2)cc1"
parameter_measured = "melting point"
meas_value = "122 to 123 °C"

[[record]]
compound = "Cc1c(C(C)(C)C)s/c(=N\\C(=O)c2c(F)cccc2C(F)(F)F)n1CC1CC1 [compound 256]"
parameter_measured = "melting point"
meas_value = "128 to 130 °C"

[[record]]
compound = "Cc1c(C(C)(C)C)s/c(=N\\C(=O)c2cc(F)ccc2F)n1CC1CC1 [compound 221]"
parameter_measured = "melting point"
meas_value = "170 to 172 °C"

[[record]]
compound = "Cc1c(C(C)(C)C)s/c(=N\\C(=O)c2ncccc2Br)n1CC1CC1 [compound 304]"
parameter_measured = "melting point"
meas_value = "141 to 142 °C"

[[record]]
compound = "Cc1c(C(C)(C)C)s/c(=N\\C(=O)c2cc(I)ccc2F)n1CC1CC1 [compound 231]"
parameter_measured = "melting point"
meas_value = "95 to 96 °C"

[[record]]
compound = "Cc1s/c(=N\\C(=O)c2ccccc2I)n(CC2CC2)c1C [compound 78]"
parameter_measured = "melting point"
meas_value = "130 to 132 °C"

[[record]]
compound = "Cc1s/c(=N\\C(=O)c2ccc(F)cc2Br)n(CC2CC2)c1C"
parameter_measured = "melting point"
meas_value = "144 to 146 °C"

[[record]]
compound = "Cc1c(C(C)(C)C)s/c(=N\\C(=O)c2cccc(C(F)(F)F)c2F)n1C [compound 141]"
parameter_measured = "melting point"
meas_value = "176 to 178 °C"

